system: Pan troglodytes; test: Compound was tested for the oral diuretic activity in chimpanzee at the dose 5 mg/kg expressed as excretion rate in microequiv of K+/min; format: functional, Urine
Assay endpoint: Excretion rate
Answer as a number with no unit attached.

Find the recorded Excretion rate belonging to CC1(c2ccccc2)Cc2cc(OCC(=O)O)c(Cl)c(Cl)c2C1=O (stereo unspecified) [INDACRINONE] and report it.
108

Find the recorded Excretion rate belonging to CC1(C2CCCC2)Cc2cc(OCC(=O)O)c(Cl)c(Cl)c2C1=O (stereo unspecified) and report it.
64

Find the recorded Excretion rate belonging to O=C(O)[C@H]1Cc2c3c(c(Cl)c(Cl)c2O1)C(=O)C1(CCCC1)C3 (stereo in doubt; 4d) and report it.
274

Find the recorded Excretion rate belonging to NS(=O)(=O)c1cc2c(cc1Cl)NCNS2(=O)=O [HYDROCHLOROTHIAZIDE] and report it.
73

Find the recorded Excretion rate belonging to `O=C(O)COc1cc2c(c(Cl)c1Cl)C(=O)C1(CCCC1)C2` and report it.
42

Find the recorded Excretion rate belonging to CC1(C2CCCC2)Cc2c3c(c(Cl)c(Cl)c2C1=O)O[C@@H](C(=O)O)C3 (stereo partly specified) and report it.
63

---

test system: Rattus norvegicus; experiment: Compound was tested for the oral natriuretic activity in female rats at the dose 81 mg/kg; mequiv of Na+ x 100 / cage; format: functional
So I've got a bunch of compounds here, and I need their Excretion rate values.
Answer as a number with no unit attached.

Find the recorded Excretion rate belonging to CCCC1Cc2c(c(C)c(C)c3oc(C(=O)O)cc23)C1=O (configuration not stated) and report it.
28

Find the recorded Excretion rate belonging to CC1(C2CCCC2)Cc2c3c(c(Cl)c(Cl)c2C1=O)O[C@@H](C(=O)O)C3 (some centres not stated) and report it.
340

Find the recorded Excretion rate belonging to O=C(O)[C@H]1Cc2c3c(c(Cl)c(Cl)c2O1)C(=O)C1(CCCC1)C3 (stereo in doubt; 4d) and report it.
432

Find the recorded Excretion rate belonging to NS(=O)(=O)c1cc(C(=O)O)c(NCc2ccco2)cc1Cl [FUROSEMIDE] and report it.
244

Find the recorded Excretion rate belonging to CC1(c2ccccc2)Cc2cc(OCC(=O)O)c(Cl)c(Cl)c2C1=O (configuration not stated) and report it.
189

Find the recorded Excretion rate belonging to CCC1C(=O)c2c(Cl)c(Cl)c3c(c2C1c1ccccc1)CC(C(=O)O)O3 (configuration not stated) and report it.
87

Find the recorded Excretion rate belonging to CC1(c2ccccc2)Cc2c3c(c(Cl)c(Cl)c2C1=O)O[C@H](C(=O)O)C3 (some centres not stated) and report it.
388
